# TARGET OR TEST SYSTEM: RsTSPO (Cereibacter sphaeroides)
# Sequence (Q9RFC8 whole entry): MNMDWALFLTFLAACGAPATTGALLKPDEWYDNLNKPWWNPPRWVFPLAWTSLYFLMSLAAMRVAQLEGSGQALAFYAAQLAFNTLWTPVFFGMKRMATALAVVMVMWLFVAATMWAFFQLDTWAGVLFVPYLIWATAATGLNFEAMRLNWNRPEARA
# ASSAY PROTOCOL: binding to purified protein
pKd: −log10 of the molar value.
ENDPOINT: pKd

Test item CC(C)CCC[C@@H](C)[C@H]1CC[C@H]2[C@@H]3CC=C4C[C@@H](O)CC[C@]4(C)[C@H]3CC[C@]12C ; RsTSPO (Cereibacter sphaeroides); reported pKd was ~4.10

---

# TARGET OR TEST SYSTEM: UniProt:Q9RFC8
# ASSAY PROTOCOL: fluorescence quenching
# Assay type: binding
# EXPERIMENTAL CONTEXT: affinity value, symbol not given
ENDPOINT: pKd
Give bare numbers, as −log10 of the molar value.

# value of pKd, UniProt:Q9RFC8, item CCC(C)N(C)C(=O)c1cc2ccccc2c(-c2ccccc2Cl)n1 (stereo not shown) = 5.00
